Recorded values, source PubChem BioAssay (NCI).

Test system: COLO 205 colon
Test: NCI-60 one-dose screen, 48 h
Conditions: 10 µM unless noted
This is part of a sample that, as a whole, favours compounds with a hit. Of some 83,000 tested, about 20% had one in any assay. Calls of active or inactive are those of the source. The calls were made as follows: active = growth percent below 10; inactive = the rest.
Respond with a class label; see active, inactive

- compound: "COc1ccc(-c2c(C#N)cnc(N)c2-c2nc3cc(C)c(C)cc3[nH]2)cc1"
  discrete label: "inactive"
- compound: "c1ccc2c(c1)Oc1cccnc1-n1nccc1-2"
  discrete label: "inactive"

Request: Please state the recorded outcome for this compound: O=C(Nc1ccc(-n2cc(-c3ccncc3)c(-c3ccc(O)c(Cl)c3)n2)cc1)Nc1ccc(Cl)c(C(F)(F)F)c1
Result: inactive

Request: Hi team, can someone confirm the assay call for COc1ccc(/C(=C/c2cc(OC)c(OC)c(OC)c2)[N+](=O)[O-])cc1 ?
Result: active

Request: Give the logged outcome of this assay for the following compound: N#Cc1c2c(c(N)[nH]c1=O)C(=O)NC2(O)c1ccccc1 (stereo not given)
Result: inactive
